# TEST: Pseudomonas biofilm growth suppression – PAO1 strain, BacTiter-Glo luminescence, LB-PBS, primary screen (AID 1144)
# STUDY_CONDITIONS: P. aeruginosa PAO1 biofilm, 12 h, higher = more signal
QUANTITY_NAME: z-score

COMPOUND	REPORTED_RESULT
OCCCC1=CC(c2ccc(CN3CCCC3)cc2)N(Cc2cc3c(cc2Br)OCO3)CC1 (configuration not stated)	-0.808
COc1ccc([Si](C)(C)[C@H]2[C@H](CC(=O)N3CCC[C@H]3CO)O[C@@]3(C(=O)N(Cc4ccc(N5CCOC5=O)cc4)c4ccccc43)[C@@H]2C)cc1	0.11
O=c1cccc(-c2ccc([N+](=O)[O-])cc2)o1	-0.982
C=CCNC(=O)[C@@H]1[C@H]2C(=O)O[C@H](c3ccccc3)[C@H](c3ccccc3)N2[C@H](c2ccccc2OCCO)[C@@]12C(=O)N(C(=O)OCCOC)c1ccc(C#CC3(O)CCCCCC3)cc12	-0.0868
COc1cc2c(cc1O)C(C1CC1)N(C)CC2 (configuration not stated)	0.991
Cc1ccc(N2C(=O)c3ccccc3[C@@H](C(=O)NCCCN(C)C)[C@@H]2c2ccc(CO)cc2)nc1	0.252
CCCNC(=O)[C@@]1(Sc2ccc(C)cc2)CC(=O)N(C2Cc3ccccc3C2)[C@@H]1c1ccc(CO)cc1I	0.594
CCCC=C(CCC)[C@@H](NP(=O)(c1ccccc1)c1ccccc1)c1ccc(-c2ccccc2)cc1	0.892
[N-]=[N+]=Nc1ccccc1[C@H]1OC(c2ccc(OCCCO)cc2)=N[C@@]1(Cc1ccccc1)C(=O)NCCN1CCOCC1	-0.395
COC(=O)C1(CC(C)C)C=C2C(=C(c3ccccc3)C(=O)C2C)CN1 (configuration not stated)	0.279
CCCCN1CC=CC23O[C@@H]4/C=C\CCCOC(=O)C4[C@H]2C(=O)N(CCO)[C@@H]3C1=O (some centres not stated)	-1.29
CCCCC=C[C@@H](NC(=O)OCc1ccccc1Cl)c1ccccc1	-0.146
COC(=O)c1c(CC[C@@H](CO)NC(=O)N[C@@H](C)Cn2cc(-c3ccccn3)nn2)oc(C(C)=O)c1C(=O)OC	-0.243
[N-]=[N+]=Nc1ccccc1C[C@]1(C(=O)NCCN2CCOCC2)COC(c2ccc(OCCCO)cc2)=N1	0.783
COc1ccc([Si](C)(C)[C@@H]2[C@@H](CCO)O[C@]3(C(=O)N(Cc4ccccc4)c4ccc(N5CCOC5=O)cc43)[C@H]2C)cc1	-1.37
CCOC(=O)C[C@H]1[C@H](OC(=O)c2cc3ccccc3oc2=O)[C@@H](NC(=O)c2ccccc2)c2cc(OCCCO)ccc2N1C(=O)c1ccccc1	0.311
O=C(O)[C@@H]1[C@@H]2C(=O)N(c3ccccc3)C(=O)[C@@H]2C[C@@H]1Sc1ccccc1	0.956

---

# EXPERIMENTAL_SYSTEM: Streptavidin (Streptomyces avidinii)
# TEST: compounds binding control protein streptavidin – biophysical, small-molecule microarray, 635/667 nm fluorescence, artefact control for SMM compound annotation, primary screen (AID 1147);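 note: signal reflects streptavidin binding to arrayed compounds as a control protein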
# STUDY_CONDITIONS: higher = more signal
QUANTITY_NAME: composite z-score

COMPOUND	REPORTED_RESULT
COCCCNC(=O)[C@@]1(Sc2ccc(C)cc2)CC(=O)N(C2Cc3ccccc3C2)[C@@H]1c1ccc(CO)cc1	-1.17
COC(=O)[C@@]1(Cc2ccc(OC)cc2)[C@H]2c3cc(C(=O)N4CCCC4)n(CCO)c3C[C@H]2CN1C(=O)c1ccccc1	0.342
COc1cc2c(cc1O)C(c1cccs1)N(Cc1cc3c(cc1Br)OCO3)CC2 (stereo not given)	2.07
CN(C)C(=O)[C@]1(Cc2ccccc2CN=[N+]=[N-])N=C(c2ccc(OCCCO)cc2)O[C@@H]1c1ccccc1	0.792
CCC#CCN(Cc1ccccc1Br)[C@H](/C=C/C1CC1)[C@@H](O)Cc1ccccc1	-0.529
COc1ccc(CCNC(=O)[C@@]2(Cc3ccccc3I)c3ccccc3C(=O)N(C3CCCCC3)[C@H]2c2ccc(CO)cc2)cc1	0.623
COc1cccc(C)c1NC(=O)O[C@H]1[C@H](OC(=O)Nc2ccc3c(c2)OCO3)[C@@H](OC(=O)Nc2ccc3c(c2)OCO3)[C@@H](OC)O[C@@H]1CO	1.3
C#CCN([C@@H](Cc1ccccc1)C(=O)OC)[C@@H](/C=C/C1CC1)[C@H](O)Cc1ccccc1	-0.676
CCCC[C@@H](O)C1=C(COc2ccccc2)C[C@H]2C(=O)N(Cc3ccccc3)C(=O)[C@H]2[C@H]1CO	-0.0098
CC1CC/C=C\[C@H]2OC34C=CCN(C(C)(C)C)C(=O)[C@H]3N(CCCCCO)C(=O)[C@@H]4C2C(=O)O1 (stereo not given in full)	-0.719
CCOC(=O)[C@@H]1CCCCN1C(=O)C(=O)OC	-0.0957
C=CC[C@@]1(C(=O)NCCCOC)N=C(c2ccc(OCCCO)cc2)O[C@@H]1c1ccccc1N=[N+]=[N-]	0.77
CC(=O)N1CC2(CC2)CC1c1ccccc1 (stereo not given)	0.547
NC(=O)NCC#Cc1ccc2c(c1)[C@]1(C(=O)N2)[C@H](C(=O)N2CCN(c3ncccn3)CC2)[C@H]2C(=O)O[C@H](c3ccccc3)[C@H](c3ccccc3)N2[C@@H]1c1ccc(O)cc1	0.328
COCCOC(=O)N1C(=O)[C@@]2(c3cc(C#CC4(O)CCCCCC4)ccc31)[C@H](C(=O)Nc1nc3ccccc3s1)[C@H]1C(=O)O[C@H](c3ccccc3)[C@H](c3ccccc3)N1[C@@H]2c1ccc(O)cc1	0.857
COC(=O)c1c(CC[C@@H](CO)NC(=O)N2CCC[C@H]2Cn2cc(C3(O)CCCCC3)nn2)oc(C(C)=O)c1C(=O)OC	0.429
C#Cc1cc2ccccc2oc1=O	-1.47
COC(=O)[C@@H]1N=C(c2ccc(OCCCO)cc2)O[C@@H]1c1ccccc1	-0.913
COc1ccccc1CN1C(=O)c2ccccc2[C@](Cc2ccccc2I)(C(=O)O)[C@@H]1c1ccc(CO)cc1	1.09
CC(C)NC(=O)[C@@]1(C)c2ccccc2C(=O)N(Cc2ccc(OC(F)(F)F)cc2)[C@H]1c1ccc(CO)cc1	-0.933
COc1ccc([Si](C)(C)[C@@H]2[C@@H](CCO)O[C@]3(C(=O)N(Cc4cccc(NC(=O)[C@H](C)O)c4)c4ccccc43)[C@H]2C)cc1	0.887
CN(C)C(=O)[C@@]1(Cc2ccccc2)N=C(c2ccc(OCCCO)cc2)O[C@H]1c1ccccc1	1.29
C[C@@H]1NC(=O)[C@@H](Cc2ccccc2)NC(=O)[C@@]23C(=O)N[C@@H](Cc4ccccc4)C2[C@H](C)[C@@]2(C)O[C@H]2C3/C=C/C/C=C\CNC1=O (stereo not given in full)	-0.963
CCOC(=O)C[C@H]1[C@H](OC(=O)c2cc3ccccc3oc2=O)[C@@H](NC(=O)c2ccccc2)c2cc(OCCCO)ccc2N1C(=O)c1ccccc1	0.289
COCCOC(=O)N1C(=O)[C@@]2(c3cc(C#CC4(O)CCCCCC4)ccc31)[C@H](C(=O)N1CCc3cc(OC)c(OC)cc3C1)[C@H]1C(=O)O[C@H](c3ccccc3)[C@H](c3ccccc3)N1[C@@H]2c1ccc(OCCO)cc1	1.04
C=CCN1C(=O)[C@]2(CCS(=O)(=O)c3ccccc3)N=C(c3ccc(OCCCO)cc3)O[C@@H]2c2ccccc21	0.479
CCOC(=O)C[C@H]1[C@H](OC(=O)c2ccccc2-c2ccccc2)[C@@H](NC(=O)c2ccc3ccccc3n2)c2cc(OCCCO)ccc2N1C(=O)Cc1ccc(OC)cc1	-0.0997
O=C1OCCC/C=C\[C@H]2OC34C=CCN(c5ccc6ccccc6c5)C(=O)[C@H]3N(CCO)C(=O)[C@@H]4C12 (stereo not given in full)	-1.2
NCCCCCNC(=O)[C@@H]1C[C@@H]2C(=O)N[C@@H](CCCCN)C(=O)N2[C@@H]1c1ccc(O)cc1	0.811
Cc1ccc(S[C@]2(C(=O)NCC(F)(F)F)CC(=O)N(Cc3cc(C(F)(F)F)cc(C(F)(F)F)c3)[C@@H]2c2ccc(CO)cc2I)cc1	-0.978

Data origin: PubChem BioAssay
